Just for reference, PubChem BioAssay (NCI) is where these values come from.

System: ACHN renal
Test: NCI tumour cell line growth inhibition, 48 h

[
  {
    "Compound": "C#CCNC(=O)NCCCCC(NC(=O)OCc1ccccc1)C(=O)OCc1ccccc1 (stereo unspecified)",
    "TGI": "> 31.6 µM"
  },
  {
    "Compound": "CC1(C)C2CCC3(OCCO3)C1C(O)C2 (stereo unspecified)",
    "TGI": "> 100 µM"
  },
  {
    "Compound": "COC(=O)CC(C(C(=O)OCc1ccccc1)C(C)O)N1C(=O)OC(c2ccccc2)C1c1ccccc1 (stereo unspecified)",
    "TGI": "> 100 µM"
  },
  {
    "Compound": "Cc1ccc(S(=O)(=O)[C@@H](Cl)[C@H]2N=C(Cl)NN=C2c2ccccc2)cc1",
    "TGI": "> 100 µM"
  },
  {
    "Compound": "CCN1CCN(Cc2ccc(NC(=O)Nc3nc4ccc(Oc5ccnc(C(=O)NC)c5)cc4s3)cc2C(F)(F)F)CC1",
    "TGI": "2.71 µM"
  },
  {
    "Compound": "CCCCCCCCOC(=O)c1c(C)[nH]c(/C=C2\\N=C(c3ccc[nH]3)C=C2OC)c1C",
    "TGI": "1.77 µM"
  },
  {
    "Compound": "NC(Cc1c[nH]c2cc([N+](=O)[O-])ccc12)C(=O)O (stereo unspecified)",
    "TGI": "> 100 µM"
  },
  {
    "Compound": "Cc1ccc(NC2=NCCO2)c2c1CCC2",
    "TGI": "> 100 µM"
  },
  {
    "Compound": "O=C(O)c1cc(=O)c2c([nH]c3ccccc32)s1",
    "TGI": "> 100 µM"
  },
  {
    "Compound": "CCc1cccc(C)c1NC(=O)CCc1nnc2s/c(=C\\c3cccc4ccccc34)c(=O)n12",
    "TGI": "> 100 µM"
  },
  {
    "Compound": "Cc1ccc(-c2nnc(CCCCCCCCc3nnc(-c4ccc(C)cc4O)n3N)n2N)c(O)c1",
    "TGI": "> 100 µM"
  },
  {
    "Compound": "CN(C)/C=N\\c1ccnc(=O)[nH]1",
    "TGI": "> 100 µM"
  },
  {
    "Compound": "Cc1cc(C)c2c(n1)sc1c(N)ncnc12",
    "TGI": "> 25 µM"
  },
  {
    "Compound": "Cc1ccc(Sc2ccccc2[N+](=O)[O-])cc1",
    "TGI": "> 100 µM"
  },
  {
    "Compound": "CNc1ccc2ncccc2c1[N+](=O)[O-]",
    "TGI": "> 100 µM"
  },
  {
    "Compound": "CCOC(=O)c1c(C)n(Cc2ccc(Cl)cc2Cl)c2c1cc1oc(=O)c(=O)n3cnc2c13",
    "TGI": "27.5 µM"
  },
  {
    "Compound": "C1=C/COCc2cc(ccc2OCCN2CCCC2)Nc2nccc(n2)-c2ccc(o2)COC/1",
    "TGI": "11.8 µM"
  },
  {
    "Compound": "CN(C)c1ccc(/C=C/C(=O)N[C@@H]2C(=O)N3[C@@H]2SC(C)(C)[C@@H]3C(=O)O)cc1",
    "TGI": "> 100 µM"
  },
  {
    "Compound": "CC1CN(S(=O)(=O)c2oc(-c3ccc(Cl)cc3)nc2C#N)CC(C)O1 (stereo unspecified)",
    "TGI": "3.13 µM"
  },
  {
    "Compound": "CCN(Cc1cc(F)ccc1F)c1ccc(CO)c(Cl)c1",
    "TGI": "29.6 µM"
  },
  {
    "Compound": "Clc1cccc(N2CCN(CCCN3CCc4c([nH]c5ccccc45)C3c3cccnc3)CC2)c1 (stereo unspecified)",
    "TGI": "31.3 µM"
  },
  {
    "Compound": "COC(=O)C12CC(NC(=O)c3csc([C@@H](C[C@H](C(C)C)N(C)C(=O)[C@@H](NC(=O)[C@H]4CCCCN4C)C4CC4)OC(C)=O)n3)(C1)C2",
    "TGI": "> 16.7 µM"
  },
  {
    "Compound": "CC(C)OP(=O)(OC(C)C)C1=NN(c2ccc([N+](=O)[O-])cc2)C(P(=O)(OC(C)C)OC(C)C)=NN1c1ccc([N+](=O)[O-])cc1",
    "TGI": "> 100 µM"
  },
  {
    "Compound": "O=CC(O)C(O)C(O)C1CNC(=S)O1 (stereo unspecified)",
    "TGI": "> 100 µM"
  },
  {
    "Compound": "CN(C)CCNC(=O)c1ccc(-c2nc3ccc4[nH]ncc4c3c3c2C2CCC3C2)cc1 (stereo unspecified)",
    "TGI": "6.91 µM"
  },
  {
    "Compound": "O=C1Nc2cc([N+](=O)[O-])c(Br)cc2C1=O",
    "TGI": "35.3 µM"
  },
  {
    "Compound": "N/C(=N\\NS(=O)(=O)c1ccccc1)Oc1ccc(Br)cc1Br",
    "TGI": "> 100 µM"
  },
  {
    "Compound": "COC(=O)c1c(C)cccc1C1CN=NC12Cc1ccc(C)c(C)c1C2=O (stereo unspecified)",
    "TGI": "> 100 µM"
  },
  {
    "Compound": "O=C(Nc1ccc(F)cc1F)c1cc(Cl)ccc1O",
    "TGI": "7.68 µM"
  },
  {
    "Compound": "CCOC(=O)c1cc2c(OCc3ccccc3)c(OC)cc3c2c(n1)N(c1ccc(OC)cc1)C(C)C3 (stereo unspecified)",
    "TGI": "> 50 µM"
  },
  {
    "Compound": "O=[N+]([O-])c1ccc2oc(=Nc3ccccc3)c(Nc3ccccc3)nc2c1",
    "TGI": "> 100 µM"
  }
]
